# Tested on: PPARg DBDmut IVT, anti-PPARg (DBD mutation: PPARg1 K132A/R137A, NR concentration 270 nM)
# experiment: PBM binding z-score (relative to random genomic background probes); higher = stronger binding; sequences stand for … in GC…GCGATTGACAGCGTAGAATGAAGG
Overview of recorded PBM binding z-score for various sequences
# output: bare number, no unit

sequence-code | reported-measurement
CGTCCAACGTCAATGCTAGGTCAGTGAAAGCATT | -0.198

Prompt: Reported PBM binding z-score for "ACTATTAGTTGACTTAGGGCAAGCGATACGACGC" : what is it?
Completion: 1.04

Prompt: Reported PBM binding z-score for "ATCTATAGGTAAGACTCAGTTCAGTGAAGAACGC" : what is it?
Completion: 1.3

* * *

# System: FXR:RXRa (NR concentration 270 nM, RXRa partner concentration 90 nM)
# experiment: PBM binding z-score (relative to random genomic background probes); higher = stronger binding; sequences stand for … in GC…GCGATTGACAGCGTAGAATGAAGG
measurement-label: PBM binding z-score

sequence-code | system-tested | PBM binding z-score
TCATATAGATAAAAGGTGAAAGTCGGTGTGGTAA | FXR:RXRa (NR concentration 270 nM, RXRa partner concentration 90 nM) | 1.52

Prompt: Reported PBM binding z-score for "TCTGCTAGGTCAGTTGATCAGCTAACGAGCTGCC" : what is it?
Completion: 0.721

Prompt: Reported PBM binding z-score for "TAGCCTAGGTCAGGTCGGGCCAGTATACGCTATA" : what is it?
Completion: 2.66

* * *

# Test system: FXR:RXRa (NR concentration 270 nM, RXRa partner concentration 90 nM)
# experiment: PBM binding z-score (relative to random genomic background probes); higher = stronger binding; sequences stand for … in GC…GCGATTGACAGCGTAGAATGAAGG
Decision: PBM binding z-score >= 1 yields label 1, all other cases yield label 0.

Examples from the recorded data:
sequence-code | class-label
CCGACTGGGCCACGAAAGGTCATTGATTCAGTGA | label 1
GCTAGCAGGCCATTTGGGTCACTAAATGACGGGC | label 0

Prompt: Please check the record "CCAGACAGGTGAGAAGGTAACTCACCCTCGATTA" and state if its PBM binding z-score is at or above 1.
Completion: label 0

Prompt: Please check the record "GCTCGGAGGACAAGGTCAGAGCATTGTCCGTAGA" and state if its PBM binding z-score is at or above 1.
Completion: label 1

Prompt: Please check the record "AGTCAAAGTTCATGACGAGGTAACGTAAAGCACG" and state if its PBM binding z-score is at or above 1.
Completion: label 1

Prompt: Please check the record "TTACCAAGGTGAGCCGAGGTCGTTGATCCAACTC" and state if its PBM binding z-score is at or above 1.
Completion: label 1

Prompt: Please check the record "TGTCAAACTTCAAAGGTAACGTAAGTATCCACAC" and state if its PBM binding z-score is at or above 1.
Completion: label 0

Prompt: Please check the record "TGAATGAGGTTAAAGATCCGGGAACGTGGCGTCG" and state if its PBM binding z-score is at or above 1.
Completion: label 1

Prompt: Please check the record "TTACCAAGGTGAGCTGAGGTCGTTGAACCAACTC" and state if its PBM binding z-score is at or above 1.
Completion: label 1

Prompt: Please check the record "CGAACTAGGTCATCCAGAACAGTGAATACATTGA" and state if its PBM binding z-score is at or above 1.
Completion: label 1

Prompt: Please check the record "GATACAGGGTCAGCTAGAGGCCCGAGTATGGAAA" and state if its PBM binding z-score is at or above 1.
Completion: label 1

Prompt: Please check the record "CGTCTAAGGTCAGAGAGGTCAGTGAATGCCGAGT" and state if its PBM binding z-score is at or above 1.
Completion: label 1

* * *

# System: RARb homodimer (NR concentration 270 nM)
# experiment: PBM binding z-score (relative to random genomic background probes); higher = stronger binding; sequences stand for … in GC…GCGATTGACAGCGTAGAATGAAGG
measurement-label: PBM binding z-score
# output: bare number, no unit

sequence-code | PBM binding z-score
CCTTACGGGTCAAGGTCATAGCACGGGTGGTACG | 4.87
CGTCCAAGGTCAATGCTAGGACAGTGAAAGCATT | 4.05

Read the next record carefully.
Prompt: # get_value(readout= PBM binding z-score, system= RARb homodimer (NR concentration 270 nM)) for "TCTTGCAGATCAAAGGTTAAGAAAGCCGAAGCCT"
Completion: 1.18

* * *

# Tested on: PPARg:RXRa DBDmut IVT, anti-RXR (DBD mutation: RXRa K156A/R161A, NR concentration 270 nM, RXRa partner concentration 90 nM)
# experiment: PBM binding z-score (relative to random genomic background probes); higher = stronger binding; sequences stand for … in GC…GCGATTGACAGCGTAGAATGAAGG
Overview of recorded PBM binding z-score for various sequences
# output: bare number, no unit

// solved cases for PBM binding z-score follow
sequence-code | measurement-label | reported-measurement
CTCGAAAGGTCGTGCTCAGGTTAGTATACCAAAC | PBM binding z-score | 0.848
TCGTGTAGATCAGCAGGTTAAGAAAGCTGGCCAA | PBM binding z-score | 1.06
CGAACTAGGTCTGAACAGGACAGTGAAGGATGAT | PBM binding z-score | 1.88
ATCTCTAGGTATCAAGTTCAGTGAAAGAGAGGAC | PBM binding z-score | 0.507
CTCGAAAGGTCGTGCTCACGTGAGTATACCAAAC | PBM binding z-score | 0.85

Prompt: Reported PBM binding z-score for "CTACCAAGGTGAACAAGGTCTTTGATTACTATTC" : what is it?
Completion: 2.51

Prompt: Reported PBM binding z-score for "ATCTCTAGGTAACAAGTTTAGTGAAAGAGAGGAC" : what is it?
Completion: 3.18

Prompt: Reported PBM binding z-score for "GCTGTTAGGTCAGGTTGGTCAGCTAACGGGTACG" : what is it?
Completion: 2.26

* * *

# Tested on: PPARg:RXRa IVT, anti-PPARg (NR concentration 270 nM, RXRa partner concentration 90 nM)
# experiment: PBM binding z-score (relative to random genomic background probes); higher = stronger binding; sequences stand for … in GC…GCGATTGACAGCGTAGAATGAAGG
Class boundaries, taken from values of PBM binding z-score, are as follows: label 0: < 0.09; label 1: ≥ 0.09 and < 4; label 2: ≥ 4

Examples from the recorded data:
sequence-code | system-tested | class-label
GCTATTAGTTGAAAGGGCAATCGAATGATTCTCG | PPARg:RXRa IVT, anti-PPARg (NR concentration 270 nM, RXRa partner concentration 90 nM) | label 1
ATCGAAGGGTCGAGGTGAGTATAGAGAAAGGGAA | PPARg:RXRa IVT, anti-PPARg (NR concentration 270 nM, RXRa partner concentration 90 nM) | label 1
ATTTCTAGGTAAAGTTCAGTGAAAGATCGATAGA | PPARg:RXRa IVT, anti-PPARg (NR concentration 270 nM, RXRa partner concentration 90 nM) | label 2
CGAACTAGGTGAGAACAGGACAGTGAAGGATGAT | PPARg:RXRa IVT, anti-PPARg (NR concentration 270 nM, RXRa partner concentration 90 nM) | label 2

Prompt: Kindly identify the class of "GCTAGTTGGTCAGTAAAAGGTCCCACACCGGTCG" .
Completion: label 0

Prompt: Kindly identify the class of "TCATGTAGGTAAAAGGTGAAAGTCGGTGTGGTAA" .
Completion: label 2

Prompt: Kindly identify the class of "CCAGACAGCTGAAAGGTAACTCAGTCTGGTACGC" .
Completion: label 0

Prompt: Kindly identify the class of "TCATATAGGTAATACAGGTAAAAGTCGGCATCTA" .
Completion: label 1

* * *

# System: PPARg:RXRa 90nM:30nM, anti-RXR (NR concentration 90 nM, RXRa partner concentration 30 nM)
# experiment: PBM binding z-score (relative to random genomic background probes); higher = stronger binding; sequences stand for … in GC…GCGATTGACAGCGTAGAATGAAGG
measurement-label: PBM binding z-score
# output: bare number, no unit

sequence-code | measurement-label | reported-measurement
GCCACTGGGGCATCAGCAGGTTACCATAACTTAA | PBM binding z-score | 0.914
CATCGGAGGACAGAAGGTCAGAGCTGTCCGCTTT | PBM binding z-score | 0.627
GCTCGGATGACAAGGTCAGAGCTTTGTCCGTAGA | PBM binding z-score | -0.161

Prompt: Reported PBM binding z-score for "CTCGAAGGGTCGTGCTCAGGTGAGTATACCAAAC" : what is it?
Completion: 0.72

The origin of these recorded values is the supplement of paper PMC6555819.
